Where these numbers come from: patent US20220402882A1

- Test system: Ipomoea hederacea (IPOHE)
- testDescription: Post-emergence glasshouse herbicide test
- Type: in vivo
- condition: 125 g/h, evaluated after 13 days
endpoint: percentage damage caused to the plant, IPOHE

[[record]]
compound = "CC(C)S(=O)(=O)c1c(OC(F)F)ccc(C(=O)Nc2nnnn2C)c1Cl"
experimentalresult = "4 (4=60-79%)"

[[record]]
compound = "CCSc1c(OC(F)(F)F)ccc(C(=O)Nc2nnnn2C)c1Cl"
experimentalresult = "5 (5=80-100%)"

[[record]]
compound = "Cn1nnnc1NC(=O)c1ccc(OCC(F)F)c([S+](C)[O-])c1Cl (stereo not drawn)"
experimentalresult = "3 (3=40-59%)"

[[record]]
compound = "CCCS(=O)(=O)c1c(OC(F)F)ccc(C(=O)Nc2nnnn2C)c1Cl"
experimentalresult = "4 (4=60-79%)"

[[record]]
compound = "CCCSc1c(OC(F)F)ccc(C(=O)Nc2nnnn2CC)c1Cl"
experimentalresult = "4 (4=60-79%)"

[[record]]
compound = "CCn1nnnc1NC(=O)c1ccc(OCC(F)(F)F)c(S(=O)(=O)CC)c1Cl"
experimentalresult = "4 (4=60-79%)"

[[record]]
compound = "CC[S+]([O-])c1c(OC(F)F)ccc(C(=O)Nc2nnnn2C)c1C (stereo not drawn)"
experimentalresult = "5 (5=80-100%)"

[[record]]
compound = "Cn1nnnc1NC(=O)c1ccc(OC(F)F)c(S(C)(=O)=O)c1Cl"
experimentalresult = "5 (5=80-100%)"

[[record]]
compound = "CCS(=O)(=O)c1c(OC(F)F)ccc(C(=O)Nc2nnc(C)o2)c1Cl"
experimentalresult = "4 (4=60-79%)"

